System Tested: Somatostatin receptor type 2 (Homo sapiens, UniProt P30874)
Sequence (P30874 whole entry): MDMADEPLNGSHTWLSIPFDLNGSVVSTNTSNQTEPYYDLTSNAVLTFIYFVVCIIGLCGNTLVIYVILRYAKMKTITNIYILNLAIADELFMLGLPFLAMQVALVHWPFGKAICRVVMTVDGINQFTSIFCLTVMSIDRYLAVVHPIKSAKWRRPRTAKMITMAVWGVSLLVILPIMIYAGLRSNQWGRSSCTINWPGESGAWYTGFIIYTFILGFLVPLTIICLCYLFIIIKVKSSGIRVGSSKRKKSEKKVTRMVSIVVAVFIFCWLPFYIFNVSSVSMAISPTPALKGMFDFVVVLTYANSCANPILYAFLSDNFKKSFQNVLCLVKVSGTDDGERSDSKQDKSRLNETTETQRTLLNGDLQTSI
Assay Name: In vitro inhibition of [125I][Leu8,D-Trp22,Tyr25] somatostatin 28 binding to human somatostatin receptor type 2 expressed in CCL39 cells; (n=3)
Format: cell-based
Measured Quantity: IC50 (pM)

substance="GALLIUM OXODOTREOTIDE" meas_value=200

---

System Tested: Somatostatin receptor type 3 (Homo sapiens, UniProt P32745)
Sequence (P32745 whole entry): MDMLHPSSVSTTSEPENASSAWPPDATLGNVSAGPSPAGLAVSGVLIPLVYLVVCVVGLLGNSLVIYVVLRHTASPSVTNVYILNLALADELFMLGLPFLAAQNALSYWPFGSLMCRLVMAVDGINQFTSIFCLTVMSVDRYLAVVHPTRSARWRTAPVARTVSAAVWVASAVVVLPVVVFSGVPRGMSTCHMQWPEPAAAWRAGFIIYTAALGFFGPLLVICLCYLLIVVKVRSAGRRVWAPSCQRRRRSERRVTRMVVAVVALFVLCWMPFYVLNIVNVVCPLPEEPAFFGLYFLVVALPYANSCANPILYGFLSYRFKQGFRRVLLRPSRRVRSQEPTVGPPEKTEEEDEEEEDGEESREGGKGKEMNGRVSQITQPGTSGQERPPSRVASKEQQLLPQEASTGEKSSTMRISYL
Assay Name: In vitro inhibition of [125I][Leu8,D-Trp22,Tyr25] somatostatin 28 binding to human somatostatin receptor type 3 expressed in CCL39 cells; (n=3)
Format: cell-based
Assay Setup: ccl39
pIC50: −log10 of the molar value.
Measured Quantity: pIC50

substance="GALLIUM OXODOTREOTIDE" meas_value="< 6.00"

---

System Tested: Somatostatin receptor type 4 (Homo sapiens)
Sequence (P31391 whole entry): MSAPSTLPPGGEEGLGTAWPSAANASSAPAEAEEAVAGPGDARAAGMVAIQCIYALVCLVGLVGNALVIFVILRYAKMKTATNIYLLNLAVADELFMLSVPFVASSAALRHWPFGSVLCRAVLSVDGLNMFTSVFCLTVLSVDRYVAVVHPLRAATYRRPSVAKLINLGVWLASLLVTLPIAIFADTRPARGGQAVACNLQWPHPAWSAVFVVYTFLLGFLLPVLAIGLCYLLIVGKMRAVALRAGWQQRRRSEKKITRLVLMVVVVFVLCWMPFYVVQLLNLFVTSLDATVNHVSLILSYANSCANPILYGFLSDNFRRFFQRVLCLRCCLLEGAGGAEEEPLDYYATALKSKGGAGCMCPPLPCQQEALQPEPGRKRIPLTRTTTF
Assay Name: In vitro inhibition of [125I][Leu8,D-Trp22,Tyr25] somatostatin 28 binding to human somatostatin receptor type 4 expressed in CCL39 cells; (n=3)
Assay type: cell-based
Measured Quantity: IC50

chemical_string=C[C@@H](O)[C@H](NC(=O)[C@@H]1CSSC[C@H](NC(=O)[C@@H](Cc2ccccc2)NC[C@@]2(O)OC[C@@H](O)[C@@H](O)[C@@H]2O)C(=O)N[C@@H](Cc2ccc(O)c(I)c2)C(=O)N[C@H](Cc2c[nH]c3ccccc23)C(=O)N[C@@H](CCCCN)C(=O)N[C@@H]([C@@H](C)O)C(=O)N1)C(=O)O meas_value="1.03 µM"

---

System Tested: Somatostatin receptor type 1 (Homo sapiens)
Sequence (P30872 whole entry): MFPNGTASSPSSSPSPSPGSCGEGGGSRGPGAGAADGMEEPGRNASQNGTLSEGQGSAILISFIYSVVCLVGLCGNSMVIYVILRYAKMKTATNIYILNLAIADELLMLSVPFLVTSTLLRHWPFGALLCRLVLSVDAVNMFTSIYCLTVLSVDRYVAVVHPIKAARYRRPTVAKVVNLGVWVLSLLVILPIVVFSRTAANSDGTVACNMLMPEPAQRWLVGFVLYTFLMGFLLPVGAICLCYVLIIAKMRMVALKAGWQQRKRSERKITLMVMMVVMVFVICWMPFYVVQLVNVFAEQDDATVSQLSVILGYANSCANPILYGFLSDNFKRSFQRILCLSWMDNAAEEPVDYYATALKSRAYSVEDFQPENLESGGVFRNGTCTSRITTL
Assay Name: In vitro inhibition of [125I][Leu8,D-Trp22,Tyr25] somatostatin 28 binding to human somatostatin receptor type 1 expressed in CHO-K1 cells; (n=3)
Type: cell-based
Assay Setup: cho-k1
Measured Quantity: IC50

chemical_string=C[C@@H](O)[C@H](CO)NC(=O)[C@@H]1CSSC[C@H](NC(=O)[C@@H](Cc2ccccc2)NC[C@]2(O)OC[C@H](O)[C@@H](O[C@@H]3O[C@@H](CO)[C@@H](O[C@@H]4O[C@@H](CO)[C@@H](O)[C@H](O)[C@@H]4O)[C@H](O)[C@@H]3O)[C@@H]2O)C(=O)N[C@@H](Cc2ccc(O)c(I)c2)C(=O)N[C@H](Cc2c[nH]c3ccccc23)C(=O)N[C@@H](CCCCN)C(=O)N[C@@H]([C@@H](C)O)C(=O)N1 measured_quantity=IC50 meas_value="> 10 µM"
chemical_string=C[C@@H](O)[C@H](NC(=O)[C@@H]1CSSC[C@H](NC(=O)[C@@H](Cc2ccccc2)NC[C@]2(O)OC[C@H](O)[C@@H](O[C@@H]3O[C@@H](CO)[C@@H](O)[C@H](O)[C@@H]3O)[C@@H]2O)C(=O)N[C@@H](Cc2ccc(O)c(I)c2)C(=O)N[C@H](Cc2c[nH]c3ccccc23)C(=O)N[C@@H](CCCCN)C(=O)N[C@@H]([C@@H](C)O)C(=O)N1)C(=O)O measured_quantity=IC50 meas_value="> 10 µM"
chemical_string=C[C@@H](O)[C@H](NC(=O)[C@@H]1CSSC[C@H](NC(=O)[C@@H](Cc2ccccc2)NC[C@]2(O)OC[C@H](O)[C@@H](O[C@@H]3O[C@@H](CO)[C@@H](O[C@@H]4O[C@@H](CO)[C@@H](O)[C@H](O)[C@@H]4O)[C@H](O)[C@@H]3O)[C@@H]2O)C(=O)N[C@@H](Cc2ccc(O)c(I)c2)C(=O)N[C@H](Cc2c[nH]c3ccccc23)C(=O)N[C@@H](CCCCN)C(=O)N[C@@H]([C@@H](C)O)C(=O)N1)C(=O)O measured_quantity=IC50 meas_value="> 10 µM"

---

IC50 values by entry
System Tested: Somatostatin receptor type 3 (Homo sapiens, UniProt P32745)
Assay Name: In vitro inhibition of [125I][Leu8,D-Trp22,Tyr25] somatostatin 28 binding to human somatostatin receptor type 3 expressed in CCL39 cells; (n=3)
Assay type: cell-based
Assay Setup: ccl39
Measured Quantity: IC50 (nM)

chemical_string=C[C@@H](O)[C@H](NC(=O)[C@@H]1CSSC[C@H](NC(=O)[C@@H](Cc2ccccc2)NC(=O)CCS[C@@H]2O[C@@H](CO)[C@@H](O)[C@H](O)[C@@H]2O)C(=O)N[C@@H](Cc2ccc(O)c(I)c2)C(=O)N[C@H](Cc2c[nH]c3ccccc23)C(=O)N[C@@H](CCCCN)C(=O)N[C@@H]([C@@H](C)O)C(=O)N1)C(=O)O measured_quantity=IC50 readout_unit=nM meas_value=398
chemical_string=C[C@@H](O)[C@@H]1NC(=O)[C@H](CCCCN)NC(=O)[C@@H](Cc2c[nH]c3ccccc23)NC(=O)[C@H](Cc2ccc(O)c(I)c2)NC(=O)[C@@H](NC(=O)[C@@H](Cc2ccccc2)NC[C@]2(O)OC[C@H](O)[C@@H](O)[C@@H]2O)CSSC[C@@H](C(=O)N[C@H](CO)[C@@H](C)O)NC1=O measured_quantity=IC50 readout_unit=nM meas_value=357
chemical_string=C[C@@H](O)[C@H](CO)NC(=O)[C@@H]1CSSC[C@H](NC(=O)[C@@H](Cc2ccccc2)NC[C@]2(O)OC[C@H](O)[C@@H](O[C@@H]3O[C@@H](CO)[C@@H](O[C@@H]4O[C@@H](CO)[C@@H](O)[C@H](O)[C@@H]4O)[C@H](O)[C@@H]3O)[C@@H]2O)C(=O)N[C@@H](Cc2ccc(O)c(I)c2)C(=O)N[C@H](Cc2c[nH]c3ccccc23)C(=O)N[C@@H](CCCCN)C(=O)N[C@@H]([C@@H](C)O)C(=O)N1 measured_quantity=IC50 readout_unit=nM meas_value=210
chemical_string=C[C@@H](O)[C@H](NC(=O)[C@@H]1CSSC[C@H](NC(=O)[C@@H](Cc2ccccc2)NC[C@]2(O)OC[C@H](O)[C@@H](O[C@@H]3O[C@@H](CO)[C@@H](O[C@@H]4O[C@@H](CO)[C@@H](O)[C@H](O)[C@@H]4O)[C@H](O)[C@@H]3O)[C@@H]2O)C(=O)N[C@@H](Cc2ccc(O)c(I)c2)C(=O)N[C@H](Cc2c[nH]c3ccccc23)C(=O)N[C@@H](CCCCN)C(=O)N[C@@H]([C@@H](C)O)C(=O)N1)C(=O)O measured_quantity=IC50 readout_unit=nM meas_value=823

---

System Tested: Somatostatin receptor type 5 (Homo sapiens, UniProt P35346)
Sequence (P35346 whole entry): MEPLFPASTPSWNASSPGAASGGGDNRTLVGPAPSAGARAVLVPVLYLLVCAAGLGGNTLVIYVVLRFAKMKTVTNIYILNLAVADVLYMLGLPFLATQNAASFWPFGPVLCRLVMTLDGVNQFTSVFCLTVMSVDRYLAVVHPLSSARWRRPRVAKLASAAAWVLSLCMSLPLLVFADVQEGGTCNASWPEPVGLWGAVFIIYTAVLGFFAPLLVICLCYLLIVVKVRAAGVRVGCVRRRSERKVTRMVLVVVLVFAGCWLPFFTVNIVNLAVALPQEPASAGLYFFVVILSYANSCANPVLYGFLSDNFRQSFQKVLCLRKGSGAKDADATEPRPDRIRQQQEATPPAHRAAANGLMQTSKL
Assay Name: In vitro inhibition of [125I][Leu8,D-Trp22,Tyr25] somatostatin 28 binding to human somatostatin receptor type 5 expressed in CHO-K1 cells; (n=3)
Format: cell-based
pIC50: −log10 of the molar value.
Measured Quantity: pIC50

substance="GALLIUM OXODOTREOTIDE" measured_quantity=pIC50 meas_value=6.42

---

System Tested: Somatostatin receptor type 1 (Homo sapiens)
Assay Name: In vitro inhibition of [125I][Leu8,D-Trp22,Tyr25] somatostatin 28 binding to human somatostatin receptor type 1 expressed in CHO-K1 cells; (n=3)
Type: cell-based
Assay Setup: cho-k1
Measured Quantity: IC50

chemical_string=C[C@@H](O)[C@@H]1NC(=O)[C@H](CCCCN)NC(=O)[C@@H](Cc2c[nH]c3ccccc23)NC(=O)[C@H](Cc2ccc(O)c(I)c2)NC(=O)[C@@H](NC(=O)[C@@H](Cc2ccccc2)NC[C@]2(O)OC[C@H](O)[C@@H](O)[C@@H]2O)CSSC[C@@H](C(=O)N[C@H](CO)[C@@H](C)O)NC1=O measured_quantity=IC50 meas_value="> 1000 nM"
chemical_string=C[C@@H](O)[C@H](CO)NC(=O)[C@@H]1CSSC[C@H](NC(=O)[C@@H](Cc2ccccc2)NC[C@]2(O)OC[C@H](O)[C@@H](O[C@@H]3O[C@@H](CO)[C@@H](O)[C@H](O)[C@@H]3O)[C@@H]2O)C(=O)N[C@@H](Cc2ccc(O)c(I)c2)C(=O)N[C@H](Cc2c[nH]c3ccccc23)C(=O)N[C@@H](CCCCN)C(=O)N[C@@H]([C@@H](C)O)C(=O)N1 measured_quantity=IC50 meas_value="> 10000 nM"
chemical_string=C[C@@H](O)[C@H](NC(=O)[C@@H]1CSSC[C@H](NC(=O)[C@@H](Cc2ccccc2)NC(=O)CCS[C@@H]2O[C@@H](CO)[C@H](O)[C@H](O)[C@@H]2O)C(=O)N[C@@H](Cc2ccc(O)c(I)c2)C(=O)N[C@H](Cc2c[nH]c3ccccc23)C(=O)N[C@@H](CCCCN)C(=O)N[C@@H]([C@@H](C)O)C(=O)N1)C(=O)O measured_quantity=IC50 meas_value="> 1000 nM"

---

System Tested: Somatostatin receptor type 2 (Rattus norvegicus) (UniProt P30680)
Sequence (P30680 whole entry): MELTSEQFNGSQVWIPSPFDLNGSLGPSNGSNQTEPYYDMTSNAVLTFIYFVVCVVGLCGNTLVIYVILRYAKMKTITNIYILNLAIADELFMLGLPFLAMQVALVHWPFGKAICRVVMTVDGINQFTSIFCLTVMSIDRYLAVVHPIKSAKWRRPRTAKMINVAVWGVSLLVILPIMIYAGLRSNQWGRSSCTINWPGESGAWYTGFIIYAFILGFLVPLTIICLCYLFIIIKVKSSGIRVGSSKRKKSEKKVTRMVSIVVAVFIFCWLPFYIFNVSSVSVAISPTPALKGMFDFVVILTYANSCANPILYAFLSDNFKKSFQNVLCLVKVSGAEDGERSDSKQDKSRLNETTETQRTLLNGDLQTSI
Assay Name: In vivo tumor accumulation was determined in nude mice bearing rat pancreatic AR42J tumor cell expressed with somatostatin receptor type 2;60 min p.i.; (n=3-5)
Format: functional, organism-based
Assay Setup: AR-42J, tested as the 123I-labelled form
Measured Quantity: ID/g

chemical_string=C[C@@H](O)[C@H](CO)NC(=O)[C@@H]1CSSC[C@H](NC(=O)[C@H](Cc2ccccc2)NC[C@]2(O)OC[C@H](O)[C@@H](O[C@@H]3O[C@@H](CO)[C@@H](O[C@@H]4O[C@@H](CO)[C@@H](O)[C@H](O)[C@@H]4O)[C@H](O)[C@@H]3O)[C@@H]2O)C(=O)N[C@@H](Cc2ccc(O)c(I)c2)C(=O)N[C@H](Cc2c[nH]c3ccccc23)C(=O)N[C@@H](CCCCN)C(=O)N[C@@H]([C@@H](C)O)C(=O)N1 meas_value=4.9%

Reference for the values: ChEMBL document CHEMBL1143592
